# Measurement Description: UV absorption (λmax, molar and specific extinction, intrinsic coloration)
# Type: physicochemical
# Test Conditions: Table 2
Metric: λmax (nm)

| Compound | Metric | Unit Tag | Number |
| --- | --- | --- | --- |
| CCOC(=O)C(=CN1CCCc2ccccc21)C(=O)OCC [(6)] | λmax | nm | 317 |
| CCOC(=O)C(=CN1c2ccccc2CC1C)C(=O)OCC (stereo not drawn) [Compound (2), N-(dicarboethoxyvinyl)-2-methylindoline] | λmax | nm | 330 |
| CC(C)COC(=O)C(=CN1c2ccccc2CC1C)C(=O)OCC(C)C (stereo not drawn) [(4)] | λmax | nm | 331 |
